test system: downy bromegrass (Bromus tectorum); experiment: Test B pre-/postemergence plant response; type: in vivo; conditions: Postemergence, 125 g ai/ha; scale 0 to 100 (0 no effect, 100 complete control)
Sorting guide: entries reporting Plant response rating, Bromegrass, Downy beneath 40 go in the true pile, the rest go in the false pile.

Example cases with answers are listed next.
# compound, assignedCategory
data = [
    ("CCCn1c(-c2cccc(F)c2)ncc(C(=O)C2=C(O)CCCC2=O)c1=O", "true"),
    ("CCc1cccc(-n2c(-c3ccccc3)ncc(C(=O)C3=C(O)CCCC3=O)c2=O)c1", "true"),
    ("O=C1CCCC(O)=C1C(=O)c1cnc(-c2ccccc2)n(C2CC[S+]([O-])CC2)c1=O (mixture of isomers)", "false"),
    ("COCCn1c(-c2cccs2)ncc(C(=O)C2=C(O)CCCC2=O)c1=O", "true"),
    ("COCCCn1c(-c2cccc(F)c2)ncc(C(=O)C2=C(O)CCCC2=O)c1=O", "true"),
]

Problem: For the compound O=C1CCCC(O)=C1C(=O)c1cnc(-c2ccsc2)n(C2CCCCC2)c1=O , is Plant response rating, Bromegrass, Downy under 40? true

Problem: For the compound CCn1c(-c2cc(F)cc(F)c2)ncc(C(=O)C2=C(O)CCCC2=O)c1=O , is Plant response rating, Bromegrass, Downy under 40? false

###

tested on: Surinam grass (Brachiaria decumbens); experiment: Test B pre-/postemergence plant response; format: in vivo; details: Postemergence, 125 g ai/ha; visual rating after 13 to 15 days, scale 0 (no effect) to 100 (complete control)
# Plant response rating, Surinam Grass >= 80 gives class 1, anything below gives class 0

# smilesNotation, assignedCategory
records = [
    ("O=C1CCCC(O)=C1C(=O)c1cnc(-c2cccs2)n(-c2ccccc2)c1=O", "class 1"),
    ("O=C1CCCC([O-])=C1C(=O)c1cnc(-c2ccccc2)n(-c2ccccc2)c1=O.[K+]", "class 0"),
    ("Cc1ccc(Cl)cc1-n1c(-c2ccccc2)ncc(C(=O)C2=C(O)CCCC2=O)c1=O", "class 1"),
]

Textbook exercise: given the entry Cc1cccc(-n2c(-c3ccccc3)ncc(C(=O)C3=C(O)CCCC3=O)c2=O)c1F , state whether its Plant response rating, Surinam Grass is greater than or equal to 80. class 1

###

test system: rice (Oryza sativa); assay: Test B flooded paddy test; format: in vivo; conditions: 250 g ai/ha; flooded paddy test; visual rating on 0 to 100 scale (0 no effect, 100 complete control) after 13 to 15 days
quantityKind: Plant response rating, Flood, Rice

Give reported Plant response rating, Flood, Rice for Cc1ccc(F)cc1-n1c(-c2cc(F)cc(F)c2)ncc(C(=O)C2=C(O)CCCC2=O)c1=O (rice (Oryza sativa)) 0

Give reported Plant response rating, Flood, Rice for Cc1c(F)cccc1-n1c(-c2ccccc2)ncc(C(=O)C2=C(O)C3CCC(C3)C2=O)c1=O (stereo not drawn) (rice (Oryza sativa)) 0

Give reported Plant response rating, Flood, Rice for CCCn1c(-c2cc(F)cc(F)c2)ncc(C(=O)C2=C(O)CC(C)(C)CC2=O)c1=O (rice (Oryza sativa)) 60

Give reported Plant response rating, Flood, Rice for O=C1CCCC(O)=C1C(=O)c1cnc(-c2ccccc2)n(C2CCOCC2)c1=O (rice (Oryza sativa)) 30

Give reported Plant response rating, Flood, Rice for COCCn1c(-c2ccn(C)n2)ncc(C(=O)C2=C(O)CCCC2=O)c1=O (rice (Oryza sativa)) 20

Give reported Plant response rating, Flood, Rice for O=C(C1=C(O)C2CCC(C2)C1=O)c1cnc(-c2ccccc2)n(CC2CCCO2)c1=O (stereo not drawn) (rice (Oryza sativa)) 0
